- target system: TFAP2B DBD-HSH WT (Homo sapiens, UniProt Q92481 219-457)
- Sequence (Q92481 219-457): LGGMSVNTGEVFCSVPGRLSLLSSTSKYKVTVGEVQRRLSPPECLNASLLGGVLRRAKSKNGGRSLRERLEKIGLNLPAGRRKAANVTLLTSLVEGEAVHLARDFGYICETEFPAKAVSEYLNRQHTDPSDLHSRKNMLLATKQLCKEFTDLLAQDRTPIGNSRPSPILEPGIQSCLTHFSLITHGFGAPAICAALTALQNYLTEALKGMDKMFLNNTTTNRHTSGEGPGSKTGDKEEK
- assay overview: ITC
readout name: log10 of Kd (log10 of the value in nM)
Note: values are log10 of Kd expressed in nM.

A selection of reference data follows.
binder	log10 of Kd
CGA (GCC(N3)GGC) (dsDNA) DNA 1: GTGCCCGAGGCAG DNA 2: CTGCCTCGGGCAC	1.26
cCC/GGC (dsDNA) DNA 1: GTCCCCGAGGCAG DNA 2: CTGCCTCGGGGAC	1.74
GCt/GGC (dsDNA) DNA 1: GTGCTCGAGGCAG DNA 2: CTGCCTCGAGCAC	2.66
GCmC/GGC (dsDNA, methylcytosine at position 5 of strand 1; second strand methylation not stated) DNA 1: GTGCCCGAGGCAG DNA 2: CTGCCTCGGGCAC	2.10
tCC/GGC (dsDNA) DNA 1: GTTCCCGAGGCAG DNA 2: CTGCCTCGGGAAC	2.39

# return log10 of Kd for each item in the list
1. GmCC/GGC (dsDNA, methylcytosine at position 4 of strand 1; second strand methylation not stated) DNA 1: GTGCCCGAGGCAG DNA 2: CTGCCTCGGGCAC
2. cCC/GGg (dsDNA) DNA 1: GTCCCCGAGGGAG DNA 2: CTCCCTCGGGGAC
3. aCC/GGC (dsDNA) DNA 1: GTACCCGAGGCAG DNA 2: CTGCCTCGGGTAC
4. TGA (dsDNA) DNA 1: GTGCCTGAGGCAG DNA 2: CTGCCTCAGGCAC
5. N4 (4 bp spacer) (dsDNA) DNA 1: GTGCCCGATGGCAG DNA 2: CTGCCATCGGGCAC

2.48
2.55
2.50
1.28
2.53
